Hi there, I'd appreciate the recorded Kd for every entry that follows.
- Test Target: T1, His-tagged intracellular region of Fas receptor (UniProt P25445 191-335, limits assumed)
- T1 construct: domain: intracellular region; Bought reagent (Sigma); also called intra-cellular region of the Fas receptor (Sigma); not shown: His tag
- T1 sequence (looked up): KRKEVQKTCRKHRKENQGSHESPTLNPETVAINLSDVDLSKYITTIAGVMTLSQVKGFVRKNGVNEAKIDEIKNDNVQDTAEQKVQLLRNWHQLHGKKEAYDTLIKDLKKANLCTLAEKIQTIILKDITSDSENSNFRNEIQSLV
- Protocol Text: SPR (Biacore), mean of three experiments ± SD
Non-standard residues stand in square brackets, D forms with d. No end group written: not given here. Ahx = NCCCCCC(=O)O
Enter the number, and then the unit.

Reference set (3 entries):
Binder	Reported
R[Ahx]RR[Ahx]RR[Ahx]RIHILFQN[dR]RMKWHKKKSRKEKKQTGSGPLG-NH2 (not fully specified, 39 residues; holds non-natural residues in the Pip2b part) [Pip2b-DAXXp]	0.7 µM
GRKKRRQRRRPPQKKSRKEKKQTGSGPLG-NH2 (Conjugate of the Tat cell penetrating peptide (N-terminal) and DAXXp) [Tat-DAXXp]	13 µM
KKSRKEKKQTGSGPLG-NH2 (also called DAXX peptide) [DAXXp]	333 µM

Next, consider the following binder.
Exercise: Entry KRFRKEKKQLGSGLLG-NH2 (not fully specified; printed as KRFRKEKKQLGSGLLG-NH2, also called mouse homolog of human DAXXp; murine DAXXp) [mDAXXp] has what Kd?
Key: 252 µM

Numbers sourced from patent US20130288979A1.
